Hey, just so you know, these numbers are from paper PMC12638379.

Experiment: MTT cytotoxicity on normal cell line WI-38
Details: human, WI-38 normal cells, % viability, WI38, 6.3uM (log conc. 0.8)
Provide the recorded viability at 24 h, 6.3 µM for the entries that follow.
One number for each entry, in %.

Reported viability at 24 h, 6.3 µM, compound C/C(=N\Nc1ccc(C(=O)O)cc1)c1cnn(-c2cc(=O)[nH]c3ccccc23)c1C [Compound 4f] : ____
65.4

Reported viability at 24 h, 6.3 µM, compound C/C(=N\Nc1ccc(C(=O)O)cc1)c1cnn(-c2cc(=O)[nH]c3ccc(C)cc23)c1C [Compound 4g] : ____
62.8

Reported viability at 24 h, 6.3 µM, compound C/C(=N\Nc1ccc(S(N)(=O)=O)cc1)c1cnn(-c2cc(=O)[nH]c3ccc(Cl)cc23)c1C [Compound 4d] : ____
63.5

Next:
Reported viability at 24 h, 6.3 µM, compound C/C(=N\Nc1ccc(S(N)(=O)=O)cc1)c1cnn(-c2cc(=O)[nH]c3ccc(Br)cc23)c1C [Compound 4e] : ____
61

###

Test system: lung cancer (HOP-92) cell line
Assay: MTT antiproliferative assay, HOP-92
Type: cell-based, human
Conditions: Homo sapiens, HOP-92, HOP-92; concentration used in RT-PCR; read-out: IC50
Procedure: […]. […] See Appendix B. After 24 h of culture incubation and supernatants discarded.
Outcome Measure: IC50 (µM)
Numbers only, in µM.

Reported IC50, compound C/C(=N\Nc1ccc(S(N)(=O)=O)cc1)c1cnn(-c2cc(=O)[nH]c3ccc(Br)cc23)c1C [Compound 4e] : ____
4.98

###

Test: in vitro
Details: human, % viability
Outcome Measure: viability at 0.4 µM (%)
Answers are plain numbers, in %.

Reported viability at 0.4 µM, compound CN[C@@H]1C[C@H]2O[C@@](C)([C@@H]1OC)n1c3ccccc3c3c4c(c5c6ccccc6n2c5c31)C(=O)NC4 [Staurosporine, reference compound] : ____
84.6

###

Tested on: NCI 60 cancer cell lines
Experiment: NCI anticancer screening over a panel of 60 cancer cells, single concentration 10 µM
Format: cell-based, human
Settings: Homo sapiens, NCI-H460, Non-small cell lung cancer NCI-H460, 10 μM; read-out: % Growth Inhibition (GI %)
Provide the recorded inhibition at 10 µM for the entries that follow.

Record inhibition at 10 µM for all entries; do not skip any.
1. COc1ccc2[nH]c(=O)cc(-n3ncc(/C(C)=N/Nc4ccc(C(=O)O)cc4)c3C)c2c1 [Compound 4h]
2. COc1ccc2[nH]c(=O)cc(-n3ncc(/C(C)=N/Nc4ccc(S(N)(=O)=O)cc4)c3C)c2c1 [Compound 4c]

< 5%
< 5%

Record inhibition at 10 µM for all entries; do not skip any.
1. C/C(=N\Nc1ccc(S(N)(=O)=O)cc1)c1cnn(-c2cc(=O)[nH]c3ccc(Cl)cc23)c1C [Compound 4d]
2. C/C(=N\Nc1ccc(C(=O)O)cc1)c1cnn(-c2cc(=O)[nH]c3ccc(Br)cc23)c1C [Compound 4j]
3. C/C(=N\Nc1ccc(C(=O)O)cc1)c1cnn(-c2cc(=O)[nH]c3ccc(C)cc23)c1C [Compound 4g]
4. C/C(=N\Nc1ccc(C(=O)O)cc1)c1cnn(-c2cc(=O)[nH]c3ccccc23)c1C [Compound 4f]
5. C/C(=N\Nc1ccc(S(N)(=O)=O)cc1)c1cnn(-c2cc(=O)[nH]c3ccc(Br)cc23)c1C [Compound 4e]

["6.52%", "< 5%", "< 5%", "< 5%", "22.1%"]

###

System: NCI 60 cancer cell lines
Test: NCI anticancer screening over a panel of 60 cancer cells, single concentration 10 µM
Format: cell-based, human
Conditions: Homo sapiens, NCI-H460, Non-small cell lung cancer NCI-H460, 10 μM; read-out: % Growth Inhibition (GI %)
Outcome Measure: inhibition at 10 µM

Record inhibition at 10 µM for all entries; do not skip any.
1. C/C(=N\Nc1ccc(S(N)(=O)=O)cc1)c1cnn(-c2cc(=O)[nH]c3ccc(C)cc23)c1C
2. C/C(=N\Nc1ccc(S(N)(=O)=O)cc1)c1cnn(-c2cc(=O)[nH]c3ccccc23)c1C

["< 5%", "< 5%"]

API: value(readout=inhibition at 10 µM, system=NCI 60 cancer cell lines) for record `C/C(=N\Nc1ccc(C(=O)O)cc1)c1cnn(-c2cc(=O)[nH]c3ccc(Cl)cc23)c1C`
< 5%

###

Test system: NCI 60 cancer cell lines
Test: NCI anticancer screening over a panel of 60 cancer cells, single concentration 10 µM
Type: cell-based, human
Settings: Homo sapiens, Hs-578T, Breast cancer HS 578T, 10 μM; read-out: % Growth Inhibition (GI %)
Outcome Measure: inhibition at 10 µM (%)
Give bare numbers, in %.

Reported inhibition at 10 µM, compound `C/C(=N\Nc1ccc(S(N)(=O)=O)cc1)c1cnn(-c2cc(=O)[nH]c3ccc(Cl)cc23)c1C` : ____
36.3

Record inhibition at 10 µM for all entries; do not skip any.
1. C/C(=N\Nc1ccc(C(=O)O)cc1)c1cnn(-c2cc(=O)[nH]c3ccc(Cl)cc23)c1C
2. C/C(=N\Nc1ccc(S(N)(=O)=O)cc1)c1cnn(-c2cc(=O)[nH]c3ccc(C)cc23)c1C
3. C/C(=N\Nc1ccc(C(=O)O)cc1)c1cnn(-c2cc(=O)[nH]c3ccc(C)cc23)c1C
4. C/C(=N\Nc1ccc(S(N)(=O)=O)cc1)c1cnn(-c2cc(=O)[nH]c3ccccc23)c1C
5. C/C(=N\Nc1ccc(C(=O)O)cc1)c1cnn(-c2cc(=O)[nH]c3ccccc23)c1C
6. C/C(=N\Nc1ccc(C(=O)O)cc1)c1cnn(-c2cc(=O)[nH]c3ccc(Br)cc23)c1C
7. C/C(=N\Nc1ccc(S(N)(=O)=O)cc1)c1cnn(-c2cc(=O)[nH]c3ccc(Br)cc23)c1C

1. 6.25
2. 14.4
3. 7.48
4. 19.4
5. 12.3
6. 11.7
7. 71.6

###

Tested on: NCI 60 cancer cell lines
Assay: NCI anticancer screening over a panel of 60 cancer cells, single concentration 10 µM
Format: cell-based, human
Conditions: Homo sapiens, MOLT-4, Leukemia MOLT-4, 10 μM; read-out: Growth inhibition (GI %)
Outcome Measure: inhibition at 10 µM (%)
One number for each entry, in %.

Reported inhibition at 10 µM, compound `CC(=O)c1cnn(-c2cc(=O)[nH]c3ccccc23)c1C` : ____
7.63

Next:
Reported inhibition at 10 µM, compound `CC(=O)c1cnn(-c2cc(=O)[nH]c3ccc(Cl)cc23)c1C` : ____
8.77

###

System: lung cancer (HOP-92) cell line
Experiment: MTT antiproliferative assay, HOP-92
Type: cell-based, human
Conditions: Homo sapiens, HOP-92, HOP-92, MTT, 1.6uM; read-out: % viability
Method: […]. […] See Appendix B. After 24 h of culture incubation and supernatants discarded.
Outcome Measure: viability at 1.6 µM
Note: state the figure and append the unit.

Reported viability at 1.6 µM, molecule C/C(=N\Nc1ccc(C(=O)O)cc1)c1cnn(-c2cc(=O)[nH]c3ccc(C)cc23)c1C [Compound 4g] : ____
67%

Record viability at 1.6 µM for all entries; do not skip any.
1. C/C(=N\Nc1ccc(S(N)(=O)=O)cc1)c1cnn(-c2cc(=O)[nH]c3ccc(Cl)cc23)c1C [Compound 4d]
2. C/C(=N\Nc1ccc(C(=O)O)cc1)c1cnn(-c2cc(=O)[nH]c3ccccc23)c1C [Compound 4f]
3. C/C(=N\Nc1ccc(S(N)(=O)=O)cc1)c1cnn(-c2cc(=O)[nH]c3ccc(Br)cc23)c1C [Compound 4e]

1. 75.9%
2. 74.4%
3. 60.4%

###

Test system: lung cancer (HOP-92) cell line
Assay: MTT antiproliferative assay, HOP-92
Format: cell-based, human
Settings: Homo sapiens; HOP-92; concentration used in RT-PCR; read-out: IC50
Outcome Measure: pIC50
Give bare numbers, as −log10 of the molar value.

Reported pIC50, compound CN[C@@H]1C[C@H]2O[C@@](C)([C@@H]1OC)n1c3ccccc3c3c4c(c5c6ccccc6n2c5c31)C(=O)NC4 [Staurosporine, reference compound] : ____
5.50

###

Provide the recorded inhibition at 10 µM for the entries that follow.
System: NCI 60 cancer cell lines
Assay: NCI anticancer screening over a panel of 60 cancer cells, single concentration 10 µM
Assay type: cell-based, human
Conditions: Homo sapiens, ACHN, Renal cancer ACHN, 10 μM; read-out: % Growth Inhibition (GI %)

Here's what some known entries look like.
Reported inhibition at 10 µM, compound `C/C(=N\Nc1ccc(C(=O)O)cc1)c1cnn(-c2cc(=O)[nH]c3ccccc23)c1C` : ____
5.83%

Reported inhibition at 10 µM, compound `COc1ccc2[nH]c(=O)cc(-n3ncc(/C(C)=N/Nc4ccc(C(=O)O)cc4)c3C)c2c1` : ____
< 5%

Reported inhibition at 10 µM, compound `C/C(=N\Nc1ccc(S(N)(=O)=O)cc1)c1cnn(-c2cc(=O)[nH]c3ccc(C)cc23)c1C` : ____
< 5%

Reported inhibition at 10 µM, compound `C/C(=N\Nc1ccc(C(=O)O)cc1)c1cnn(-c2cc(=O)[nH]c3ccc(Br)cc23)c1C` : ____
< 5%

Reported inhibition at 10 µM, compound `C/C(=N\Nc1ccc(S(N)(=O)=O)cc1)c1cnn(-c2cc(=O)[nH]c3ccc(Br)cc23)c1C` : ____
19%

Record inhibition at 10 µM for all entries; do not skip any.
1. C/C(=N\Nc1ccc(C(=O)O)cc1)c1cnn(-c2cc(=O)[nH]c3ccc(Cl)cc23)c1C
2. COc1ccc2[nH]c(=O)cc(-n3ncc(/C(C)=N/Nc4ccc(S(N)(=O)=O)cc4)c3C)c2c1
3. C/C(=N\Nc1ccc(C(=O)O)cc1)c1cnn(-c2cc(=O)[nH]c3ccc(C)cc23)c1C
4. C/C(=N\Nc1ccc(S(N)(=O)=O)cc1)c1cnn(-c2cc(=O)[nH]c3ccccc23)c1C
5. C/C(=N\Nc1ccc(S(N)(=O)=O)cc1)c1cnn(-c2cc(=O)[nH]c3ccc(Cl)cc23)c1C

< 5%
< 5%
< 5%
< 5%
14.1%
